Biological target: T1, recombinant his-tag human LAG3-ECD protein (human, UniProt P18627 23-450)
T1 construct: extracellular domain; not shown: his tag
T1 sequence (looked up): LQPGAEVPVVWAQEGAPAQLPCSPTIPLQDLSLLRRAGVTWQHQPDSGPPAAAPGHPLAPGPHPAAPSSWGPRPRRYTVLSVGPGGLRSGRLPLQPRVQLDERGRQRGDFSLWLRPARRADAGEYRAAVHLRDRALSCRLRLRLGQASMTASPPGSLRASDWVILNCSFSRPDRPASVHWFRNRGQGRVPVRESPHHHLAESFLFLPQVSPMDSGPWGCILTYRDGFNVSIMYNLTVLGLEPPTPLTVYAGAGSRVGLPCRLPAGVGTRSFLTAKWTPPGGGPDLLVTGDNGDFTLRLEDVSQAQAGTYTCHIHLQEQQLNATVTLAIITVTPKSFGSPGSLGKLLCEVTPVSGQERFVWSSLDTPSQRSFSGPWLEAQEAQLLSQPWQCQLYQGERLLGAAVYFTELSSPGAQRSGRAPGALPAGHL
Experiment: SPR Biacore T200, capture method as Example 2.7
value type: kon (M⁻¹ s⁻¹)
# number only, unit M⁻¹ s⁻¹ dropped from output

Observe how each entry below is paired with its result.
[[record]]
binder = "147H 3792 (antibody, V domains shown) VH: EVQLVQSGAEVKKPGASVKVSCKASGYTFTNYWLGWIKQAPGQGLEWIGDIYPGGDYIVYNEKFKGKATLTADTSISTAYMELSRLRSDDTAVYYCARPNLPGDYWGQGTTVTVSS VL: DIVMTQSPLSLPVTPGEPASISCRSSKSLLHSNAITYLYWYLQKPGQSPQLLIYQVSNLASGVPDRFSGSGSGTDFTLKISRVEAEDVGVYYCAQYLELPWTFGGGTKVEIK"
value_type = "kon"
result_units = "M⁻¹ s⁻¹"
value_measured = "4.9e+06"

[[record]]
binder = "147H 3790 (antibody, V domains shown) VH: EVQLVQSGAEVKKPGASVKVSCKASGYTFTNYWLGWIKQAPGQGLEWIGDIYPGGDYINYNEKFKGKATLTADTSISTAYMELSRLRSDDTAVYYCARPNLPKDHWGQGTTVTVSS VL: DIVMTQSPLSLPVTPGEPASISCRSSKSLLHSNAITYLYWYLQKPGQSPQLLIYQVSNLATGVPDRFSGSGSGTDFTLKISRVEAEDVGVYYCAQNLELPWTFGGGTKVEIK"
value_type = "kon"
result_units = "M⁻¹ s⁻¹"
value_measured = 770000


Okay, next one:
The binder listed as 147H 3663 (antibody, V domains shown) VH: EVQLVQSGAEVKKPGASVKVSCKASGYTFENYWLGWIKQAPGQGLEWIGDIYPGGDYIVYNEKFKGKATLTADTSISTAYMELSRLRSDDTAVYYCARPNLPGDYWGQGTTVTVSS VL: DIVMTQSPLSLPVTPGEPASISCRSSKSLLHSNAITYLYWYLQKPGQSPQLLIYQVSNLARGVPDRFSGSGSGTDFTLKISRVEAEDVGVYYCAQNLELPWTFGGGTKVEIK has a reported kon of 790000
